- protocol-details: Dissolution / solubility in water over time, crystalline material compared with solid dispersion
- Assay type: physicochemical
- condition-description: Time: Two Hours
readout-kind: solubility at 2 h (µg/mL)
# number only, unit µg/mL dropped from output

Incoming: Would you mind telling me what solubility at 2 h value was observed for Cc1ccc(C)c(OCCCC(C)(C)C(=O)O)c1 ?
Outgoing: 18.4

----------
- protocol-details: Dissolution / solubility in water over time, crystalline material compared with solid dispersion
- Assay type: physicochemical
- condition-description: Time: Twenty Hours
readout-kind: solubility at 20 h (µg/mL)
# number only, unit µg/mL dropped from output

Incoming: Would you mind telling me what solubility at 20 h value was observed for Cc1ccc(C)c(OCCCC(C)(C)C(=O)O)c1 [Crystalline] ?
Outgoing: 21.3
